method.summary: Population PK model of orally administered Compound A patient data
Assay type: in vivo, human
condition.parameters: human, in vivo, oral, final PK model parameter; linear elimination; read-out: CL, Estimate (converted)
quantity.kind: clearance (mL/min)
Write the value in mL/min as a bare number.

**Q:** Note down clearance recorded for COC[C@H](NC(=O)c1ccn(S(C)(=O)=O)c1)C(=O)Nc1nc(-c2cccc(N3C[C@@H](C)O[C@@H](C)C3)n2)cs1 [Compound A]
**A:** 67.8

* * *

method.summary: Population PK model of orally administered Compound A patient data
Assay type: in vivo, human
condition.parameters: human, in vivo, oral; final PK model parameter; read-out: CLp, Estimate (converted)
Procedure: A population PK model based on orally administered Compound A dosing data in a total of 10 patients with metastatic uveal melanoma (UM) and advanced hematologic malignancies (e.g., acute myeloid leukemia (AML)) was performed. Nonlinear mixed-effects models were fitted to concentration vs. time data of FHD-286. […]
quantity.kind: clearance (mL/min)
Write the value in mL/min as a bare number.

**Q:** Note down clearance recorded for COC[C@H](NC(=O)c1ccn(S(C)(=O)=O)c1)C(=O)Nc1nc(-c2cccc(N3C[C@@H](C)O[C@@H](C)C3)n2)cs1
**A:** 510
